The reported numbers originate from patent US20170008928A1.

target system: human cholecystokinin-2 receptor (CCK-2R) (Homo sapiens)
Construct: host or cells: 1321-N1 cells (plasma membranes prepared by Evotec AG Hamburg)
Sequence (P32239 whole entry): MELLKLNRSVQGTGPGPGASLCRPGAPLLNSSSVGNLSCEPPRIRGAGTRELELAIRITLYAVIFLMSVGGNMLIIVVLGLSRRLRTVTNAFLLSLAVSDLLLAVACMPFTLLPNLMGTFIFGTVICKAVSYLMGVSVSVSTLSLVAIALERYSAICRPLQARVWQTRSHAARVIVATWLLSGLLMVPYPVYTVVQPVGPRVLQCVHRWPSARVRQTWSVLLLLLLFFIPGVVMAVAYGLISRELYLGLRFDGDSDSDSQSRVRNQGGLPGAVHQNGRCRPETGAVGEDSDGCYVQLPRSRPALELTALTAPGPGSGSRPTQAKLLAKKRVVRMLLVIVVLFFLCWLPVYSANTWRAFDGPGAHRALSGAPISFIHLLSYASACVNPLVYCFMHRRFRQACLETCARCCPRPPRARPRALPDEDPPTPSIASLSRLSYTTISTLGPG
assay protocol: In vitro receptor binding to CCK-2R, SPA displacement of [125I]-CCK-8s from plasma membranes
cond: displacement of [125I]-CCK-8s, plasma membranes of 1321-N1 cells expressing CCK-2R; highest dose tested 1×10^7 pM; read-out: IC50 (CCK-2R)
assay endpoint: pIC50
Scale note: pIC50 = -log10(concentration in M).

Which pIC50 value belongs to CCCC[C@H](NC(=O)[C@H](Cc1c[nH]c2ccccc12)NC(=O)CNC(=O)[C@H](CC(C)C)NC(=O)[C@H](Cc1ccc(OS(=O)(=O)O)cc1)NC(=O)[C@H](CC(=O)O)NC(=O)CC[C@H](NC(=O)COCCOCCNC(=O)COCCOCCNC(=O)CC[C@H](NC(=O)CCCCCCCCCCCCCCCCC(=O)O)C(=O)O)C(=O)O)C(=O)N(C)[C@H](CC(=O)O)C(=O)N(C)[C@@H](Cc1ccccc1)C(N)=O [Example 32] ?
6.42
